Biological target: MRGPRX4 (Homo sapiens, UniProt Q96LA9)
Sequence (Q96LA9 whole entry): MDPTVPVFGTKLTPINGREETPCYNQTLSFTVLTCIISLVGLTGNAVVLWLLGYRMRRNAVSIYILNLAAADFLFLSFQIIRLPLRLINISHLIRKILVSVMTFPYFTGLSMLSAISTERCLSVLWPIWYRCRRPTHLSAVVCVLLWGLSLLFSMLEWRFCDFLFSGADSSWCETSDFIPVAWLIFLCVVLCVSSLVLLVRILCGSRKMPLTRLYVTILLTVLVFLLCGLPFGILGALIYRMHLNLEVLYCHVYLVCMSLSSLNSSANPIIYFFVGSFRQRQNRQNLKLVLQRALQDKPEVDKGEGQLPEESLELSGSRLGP
Assay: MRGPRX4 activation, Fluo-8 Ca2+ FLIPR assay in HEK293T cells stably expressing MRGPRX4
Type: cell-based
Details: Conc. (Log[M]) −5.5
List of MRGPRX4 activation, fluorescence change (dF/F0), Average values.
Respond numerically, and do not add a unit to the figure.

>>> experimental_result("C[C@H](CCCCC(=O)O)[C@H]1CC[C@H]2[C@@H]3CC[C@@H]4C[C@H](O)CC[C@]4(C)[C@H]3CC[C@]12C [compound 84]")
"−0.001"

Enquiry: Entry CC[C@H]1[C@@H](OC(=O)c2cccc(I)c2)[C@@H]2[C@H](CC[C@]3(C)C([C@H](C)CCC(=O)OC)=CC(=O)[C@@H]23)[C@@]2(C)CCCC[C@@H]12 [3-2] , system MRGPRX4 (Homo sapiens, UniProt Q96LA9): what MRGPRX4 activation, fluorescence change (dF/F0), Average was measured?
Return: −0.034

Enquiry: Entry CC[C@H]1[C@@H](O)[C@@H]2[C@H](CC[C@]3(C)[C@@H]([C@H](C)CCNC(=O)NS(=O)(=O)c4cc(F)ccc4F)CC[C@@H]23)[C@@]2(C)CC[C@H](F)C[C@@H]12 [9-2] , system MRGPRX4 (Homo sapiens, UniProt Q96LA9): what MRGPRX4 activation, fluorescence change (dF/F0), Average was measured?
Return: −0.068

* * *

List of Activation (%) values.
Target: MRGPRX4 (Homo sapiens, UniProt Q96LA9)
Assay: MRGPRX4 activation, Fluo-8 Ca2+ FLIPR assay in HEK293T cells stably expressing MRGPRX4
Assay type: cell-based
Conditions: second E3-8-1, 41 nM, n = 2
Write the numeric value and append its unit.

Worked examples follow.
>>> experimental_result("CC[C@H]1[C@@H](O)[C@@H]2[C@H](CC[C@]3(C)[C@@H]([C@H](C)COC(=O)NS(=O)(=O)c4ccc(N5CCCCC5)nc4)CC[C@@H]23)[C@@]2(C)CCCC[C@@H]12")
"2.55%"
>>> experimental_result("CC[C@H]1[C@@H](O)[C@@H]2[C@H](CC[C@]3(C)[C@@H]([C@H](C)CNC(=O)NS(=O)(=O)c4ccc(N5CCCCC5)nc4)CC[C@@H]23)[C@@]2(C)CCCC[C@@H]12")
"3.48%"
>>> experimental_result("CC[C@H]1[C@@H](O)[C@@H]2[C@H](CC[C@]3(C)[C@@H]([C@H](C)COC(=O)NS(=O)(=O)c4ccc5c(c4)CCC(C)(C)O5)CC[C@@H]23)[C@@]2(C)CCCC[C@@H]12")
"1.93%"

# input for lookup
Enquiry: Query (compound): `CC[C@H]1[C@@H](O)[C@@H]2[C@H](CC[C@]3(C)[C@@H]([C@H](C)COC(=O)NS(=O)(=O)c4ccc(C(C)(C)CF)cc4)CC[C@@H]23)[C@@]2(C)CCCC[C@@H]12` ; field requested: Activation (%)
Return: 3.48%

* * *

Target: UniProtKB Q96LA9
Assay: MRGPRX4 activation, Fluo-8 Ca2+ FLIPR assay in HEK293T cells stably expressing MRGPRX4
Assay type: cell-based
Design: key: fluorescence change dF/F0
Settings: E3-9, Conc. (Log[M]) −5.4
Readout Name: MRGPRX4 activation, Average
Respond numerically, and do not add a unit to the figure.

Worked examples follow.
>>> experimental_result("CC[C@H]1[C@@H](O)[C@@H]2[C@H](CC[C@]3(C)[C@@H]([C@H](C)CCNS(=O)(=O)C4CC4)CC[C@@H]23)[C@@]2(C)CCCC[C@@H]12")
0.020
>>> experimental_result("CC[C@H]1[C@@H](O)[C@@H]2[C@H](CC[C@]3(C)[C@@H]([C@H](C)CNC(=O)NS(=O)(=O)c4ccc(C(C)(C)CF)cc4)CC[C@@H]23)[C@@]2(C)CCCC[C@@H]12")
0.019
>>> experimental_result("[2H]C1([2H])CC[C@@]2(C)[C@@H](C1)[C@@H](CC)[C@@H](O)[C@@H]1[C@@H]2CC[C@]2(C)[C@@H]([C@H](C)CCNC(=S)NS(=O)(=O)c3cccs3)CC[C@@H]12")
0.018

# input for lookup
Enquiry: Query (compound): `CC[C@H]1[C@@H](O)[C@@H]2[C@H](CC[C@]3(C)[C@@H]([C@H](C)COC(=O)NS(=O)(=O)c4ccc(N5CCCCC5)nc4)CC[C@@H]23)[C@@]2(C)CCCC[C@@H]12` ; field requested: MRGPRX4 activation, Average
Return: 0.018
